B1: HDV Ribozyme (parent)
chain: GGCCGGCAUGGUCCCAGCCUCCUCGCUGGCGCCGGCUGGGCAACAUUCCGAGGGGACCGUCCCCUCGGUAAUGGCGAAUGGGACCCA

# Variants of: B1
# test: self-cleavage, relative activity (ratio to wild type); higher = more cleavage; co-transcriptional
This listing pairs variants with measured self-cleavage.
Reply with the value as a number alone.

biosequence	self-cleavage
GGCCGGCAUGGUCCCAGCCUCCUCGCUGGCGCCGGCUGGGUAACAUUCCGUGGGGACCGUCCCCUCGGUAAUGGCGAAUGGGACCCA [C41U A51U]	0.932
GGCCGGCAUGGUCCCAACCUCCUCGCUGGAGCCGGCUGGGCAACAUUCCGAGGGGACCGUCCCCUCGGUAAUGGCGAAUGGGACCCA [G17A C30A]	0.651
GGCCGGCAUGGUCCCAGCCUCCUCGCCGGCGCAGGCUGGGCAACAUUCCGAGGGGACCGUCCCCUCGGUAAUGGCGAAUGGGACCCA [U27C C33A]	0
GGCGGGCAUGGUCCCAGCCUCCUCGCUGGCGCCGGCUGGGCAACAUUCCGAGGGGACCGUCCCCUCGUUAAUGGCGAAUGGGACCCA [C4G G68U]	0.227

Alright, here's another variant for you.
Consider the variant shown here: GGCCGGCAUGGUCCCAGCCUCCUCGCUGGCGCCGGCUGGGCAAAAUUCCGAGGGGAUCGUCCCCUCGGUAAUGGCGAAUGGGACCCA [C44A C57U] What is its recorded self-cleavage?
0.582
